Test system: barnyardgrass (Echinochloa crus-galli)
assay.remarks: Test A pre-/postemergence plant response
Format: in vivo
settings: Preemergence, 125 g ai/ha; 0 to 100 scale, 0 = no effect, 100 = complete control
Quick reference: Plant response rating, Barnyardgrass of the listed items.
Could you respond with only the numeric value?

- O=C1CCCC(O)=C1C(=O)c1cnc(-c2ccc(Br)cc2)n(-c2ccccc2)c1=O: 0
- COc1ccc(-n2c(-c3cccc(C)c3)ncc(C(=O)C3=C(O)CCCC3=O)c2=O)cc1: 10

Prompt: With barnyardgrass (Echinochloa crus-galli) as the test system, provide measured Plant response rating, Barnyardgrass for this compound: O=C1CCCC(O)=C1C(=O)c1cnc(-c2ccccc2)n(-c2ccccc2Br)c1=O
Completion: 0

Prompt: Write Plant response rating, Barnyardgrass of CCn1c(-c2cc(F)cc(F)c2)ncc(C(=O)C2=C(O)CCCC2=O)c1=O ; system used: barnyardgrass (Echinochloa crus-galli)
Completion: 30

Prompt: Provide the reported Plant response rating, Barnyardgrass (system: barnyardgrass (Echinochloa crus-galli)) for C#CCn1c(-c2cc(F)cc(F)c2)ncc(C(=O)C2=C(O)CCCC2=O)c1=O
Completion: 0

Prompt: Please report Plant response rating, Barnyardgrass with barnyardgrass (Echinochloa crus-galli) for item COCCn1c(-c2ccco2)ncc(C(=O)C2=C(O)CCCC2=O)c1=O .
Completion: 30

Prompt: Report its Plant response rating, Barnyardgrass with barnyardgrass (Echinochloa crus-galli) as the test system: COc1cccc(-n2c(-c3ccccc3)ncc(C(=O)C3=C(O)CCCC3=O)c2=O)c1
Completion: 10

Prompt: Lab note: barnyardgrass (Echinochloa crus-galli) assay, enter Plant response rating, Barnyardgrass for CCCCn1c(C2CC2)ncc(C(=O)C2=C(O)CCCC2=O)c1=O here
Completion: 80

Prompt: Enter Plant response rating, Barnyardgrass (test system barnyardgrass (Echinochloa crus-galli)) for O=C1CCCC([O-])=C1C(=O)c1cnc(-c2ccccc2)n(-c2ccc(Cl)cc2)c1=O.[K+]
Completion: 10

Prompt: Enter recorded Plant response rating, Barnyardgrass with barnyardgrass (Echinochloa crus-galli) for O=C1CCCC(O)=C1C(=O)c1cnc(-c2ccccc2)n(C2CC2)c1=O here.
Completion: 40

Prompt: Consider the compound Cc1cccc(-c2ncc(C(=O)C3=C(O)CCCC3=O)c(=O)n2-c2ccc(F)cc2C)c1 tested on barnyardgrass (Echinochloa crus-galli); state its Plant response rating, Barnyardgrass.
Completion: 10

Prompt: Determine reported Plant response rating, Barnyardgrass for O=C1CCCC(O)=C1C(=O)c1cnc(-c2cc(F)cc(F)c2)n(CC2CCCCC2)c1=O ; test system: barnyardgrass (Echinochloa crus-galli).
Completion: 0

Prompt: Lab note: barnyardgrass (Echinochloa crus-galli) assay, enter Plant response rating, Barnyardgrass for Cc1cccc(-n2c(-c3ccccc3)ncc(C(=O)C3=C(O)CCCC3=O)c2=O)c1F here
Completion: 30

Prompt: Report Plant response rating, Barnyardgrass from barnyardgrass (Echinochloa crus-galli) testing of CCCCn1c(-c2cccc(C)c2)ncc(C(=O)C2=C(O)C3CCC(C3)C2=O)c1=O (centres unmarked)
Completion: 0

Prompt: Name the recorded Plant response rating, Barnyardgrass of O=C1CCCC(O)=C1C(=O)c1cnc(-c2cccc(Br)c2)n(-c2ccccc2)c1=O , assay system barnyardgrass (Echinochloa crus-galli).
Completion: 10

Prompt: Answer with Plant response rating, Barnyardgrass of COCCn1c(-c2cccs2)ncc(C(=O)C2=C(O)CCCC2=O)c1=O measured for barnyardgrass (Echinochloa crus-galli).
Completion: 30

Prompt: Fetch value of Plant response rating, Barnyardgrass on barnyardgrass (Echinochloa crus-galli) for CCCCc1ncc(C(=O)C2=C(O)CCCC2=O)c(=O)n1-c1ccccc1C .
Completion: 10
